Listed next: entries and their corresponding switch fluorescence ratio.
System: ATP;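 further: ATP exposure 15 min at 22 °C before imaging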
protocol-notes: switch fluorescence ratio, 500 uM ATP over buffer (Cy3 cluster intensity, sum of 5 cycles each) (fold (ratio)); higher = stronger signal-on switching upon ATP binding; sequences stand for … in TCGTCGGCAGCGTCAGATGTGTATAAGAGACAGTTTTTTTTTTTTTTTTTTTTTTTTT…TC
condition-parameters: aptamer strand: ATP DNA aptamer (quencher-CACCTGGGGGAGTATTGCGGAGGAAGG + anchor), 100 nM annealed; ATP concentration: 500 uM
property-measured: switch fluorescence ratio

# chain-sequence, number
data = [
    ("TAAGATGGG", 1.01),
    ("GGTTTTGTTC", 1.09),
    ("TTGGAGATAT", 1.07),
    ("GTTATTAGTG", 0.993),
    ("AAAAGACGGT", 1.02),
    ("AGGGGTGCCT", 0.993),
    ("ACGGATATTA", 1.01),
    ("TCCAGTGTTG", 1.08),
    ("ATAGGAGTTG", 1.03),
    ("GTTCAAATGA", 0.987),
    ("TATGAATGGG", 1.01),
    ("TGCTTAGACT", 1.18),
    ("GGTGGTTTTT", 1.03),
    ("GATCTACCCA", 1.03),
    ("GATTTCATCA", 0.967),
    ("CGAGCGGGTA", 0.989),
    ("ACGTCAGGGT", 1.04),
    ("ATGTTAAAGG", 0.998),
    ("AGTTGGGCAT", 0.995),
    ("AAACTAACTT", 1.01),
    ("TTTAAGATTT", 1.01),
    ("CCGTACGTCA", 1.77),
    ("GCTATAAAAC", 1.03),
    ("GATCTGTGCG", 0.972),
    ("GGTCTGGAAG", 0.982),
    ("GGGGAAAAGA", 1),
    ("GGCTACAGCG", 0.987),
    ("AGGCAGATGG", 0.998),
    ("TAAGTATAAT", 0.999),
    ("TTCCGGCAAA", 1.5),
    ("TTGGGGTCTG", 1.02),
    ("CTCGGTGTGG", 1),
    ("GGGACAATAT", 1.02),
    ("AACCAGTATA", 0.995),
    ("GAAATAATGG", 1.03),
    ("GAGGTACGGG", 0.99),
    ("TCATATGAGT", 1),
    ("AGGATCGGTA", 0.987),
    ("TTCCGGTGAA", 1.06),
    ("ATTGATTGAT", 1.02),
    ("TTCACTGGGA", 0.996),
    ("GCAGTATAAT", 0.993),
    ("ACGCGTGCGT", 0.988),
    ("TGGTACAGGG", 1.03),
    ("AATGATAGTA", 1.01),
    ("ATCCAGTGTC", 1.06),
    ("AAAGCCGGTG", 1.02),
    ("ATAGGCGGGT", 1),
    ("ACAGGAGGAG", 0.986),
    ("TTTCTATGGT", 1),
    ("ACTGAAAAAG", 0.987),
    ("ACACAAGGTC", 1.03),
    ("GCTAAAAAGA", 1),
    ("TGTGTGTTTG", 0.989),
    ("TTCGGGGAAT", 0.982),
    ("ATTTTTCTAT", 0.987),
    ("CACCCCGGTT", 1.12),
    ("GGTATGACTT", 1.03),
    ("TTGTTGCTTG", 1.02),
    ("TGTTCGACCG", 1.01),
    ("ACCAAGGGTG", 1.13),
    ("ACGGAGGTGG", 0.992),
    ("GGTATTTGTA", 0.991),
    ("AAGGCTAGGA", 1),
    ("CGACAAGCAG", 1.09),
    ("GGTCGATTCG", 0.961),
    ("CCATCATAGA", 0.989),
    ("TTCGTGGGGC", 1.18),
    ("TTTTTTTTCT", 1.02),
    ("TTTAAAATAT", 0.998),
    ("GCATGCGGTC", 1.01),
    ("TGTGGTAGAA", 0.989),
    ("CGTTAGGCGC", 0.985),
    ("TCCACGGGTA", 1.08),
    ("GTCGAGGAAT", 1),
    ("TAAAAATATT", 0.961),
    ("ATGGTTCCAC", 0.997),
    ("GAATATTTTG", 0.994),
    ("TAAGAGGGGC", 1),
    ("AATCATATTT", 1.02),
    ("TCTACAGTCG", 1.02),
    ("CGTTTTTACA", 1),
    ("AAACGCCTTA", 1.03),
    ("CAGGGGCTGG", 1.05),
    ("AGGCGCAATT", 1.81),
    ("GTTGTTTGTT", 0.978),
]
